tested on: Hs-578T; assay: NCI tumour cell line growth inhibition, 48 h
Active and inactive are the calls of the source. Rule as the data show it: active = GI50 up to about 1.1 µM and inactive = higher.
Select the matching outcome among active, inactive

Cc1ccc(/C(O)=C/c2nc3ccccc3oc2=O)cc1; inactive

Query: Any idea what this test logged for `COc1ccc(/C=c2\c(=O)[nH]c3nc4ccccc4c(=O)n23)cc1` ?
Reply: inactive

Query: Any idea what this test logged for `CC(/C=N/N(C)C1=NCCCN1)=N/N(C)C1=NCCCN1` ?
Reply: inactive

Query: Any idea what this test logged for O=C(ON=C1c2ccccc2C(Br)C(Br)c2ccccc21)c1ccccc1 (configuration not stated) ?
Reply: inactive

Query: Any idea what this test logged for `C/C(=N\NC(=S)N1CCN(c2ccccn2)CC1)c1ccccn1` ?
Reply: active

Query: Any idea what this test logged for O=c1[nH]c(N/N=C\C(O)C(O)C(O)CO)nc2ccccc12 (configuration not stated) ?
Reply: inactive

Query: Any idea what this test logged for `CC(C)c1nc(Cl)nc(Cl)c1Cl` ?
Reply: active

Query: Any idea what this test logged for CC1=NN(c2ccccc2)C(=O)C1/N=N/c1ccc([As](=O)(O)O)c(O)c1 (configuration not stated) ?
Reply: inactive

Query: Any idea what this test logged for `O=C(O)CCC(=O)c1ccc[nH]1` ?
Reply: inactive

Query: Any idea what this test logged for COc1cccc(C2CC(=O)c3cccn32)c1 (configuration not stated) ?
Reply: inactive

Query: Any idea what this test logged for C=CC(c1ccccc1)[C@@]1(OC(C)=O)C(=O)C(=O)OC1C1COC(C)(C)O1 (some centres not stated) ?
Reply: inactive

Query: Any idea what this test logged for COc1cc(C2CC(C)(N3CCCC3)Oc3cc4c(cc32)OCO4)cc(OC)c1OC (configuration not stated) ?
Reply: active

Query: Any idea what this test logged for Cc1cc(=O)[nH]c2cc(NC(=O)C(CCCNC(=N)N)NC(=O)OCc3ccccc3)ccc12 (configuration not stated) ?
Reply: inactive

Query: Any idea what this test logged for c1ccc(-c2cc(C3CO3)c3ccccc3n2)cc1 (configuration not stated) ?
Reply: inactive

Query: Any idea what this test logged for COC(=O)CNC(=O)CCC(C)[C@H]1CCC2C3C(C[C@H](OC(C)=O)[C@@]21C)[C@@]1(C)CCC2(C[C@H]1C[C@H]3OC(C)=O)OOC1(CC[C@]3(C)C4C[C@H](OC(C)=O)[C@@]5(C)C(CC[C@@H]5C(C)CCC(=O)NCC(=O)OC)C4[C@H](OC(C)=O)C[C@@H]3C1)OO2 (some centres not stated) ?
Reply: active

Query: Any idea what this test logged for CC(NC(=O)C(Cc1ccc(OC(=O)c2ccccc2)cc1)NC(=O)OC(C)(C)C)C(=O)NCC(=O)NC(Cc1ccccc1)NC(=O)OCc1ccccc1 (configuration not stated) ?
Reply: inactive

Query: Any idea what this test logged for Nc1ccc2[nH]c(C(=O)N3CC(CCl)c4c3cc(N)c3ccccc43)cc2c1 (configuration not stated) ?
Reply: active

* * *

This section presents molecules with their documented GI50 values.
tested on: CAKI-1; test: NCI tumour cell line growth inhibition, 48 h
Calls of active or inactive are those of the source. No stated cut-off is given here; in the data, active = GI50 up to about 1.1 µM and inactive = higher.

Sample records with GI50:
CCc1ccccc1NC(=O)C1=C(C)NC(C)=C(C(=O)Nc2ccccc2CC)C1c1ccc2c(c1)OCO2; 25.2 µM (inactive)
C=C(C)C1CC(=O)C(C)=C(O)C1 (stereo not given); > 100 µM (inactive)
O=C(ON=C1c2ccccc2C(Br)C(Br)c2ccccc21)c1ccccc1 (stereo not given); 9.48 µM (inactive)
CC(C)CNCCc1ccccn1; > 100 µM (inactive)
NS(=O)(=O)c1ccc(NNC(=O)c2cccc3c(=O)c4ccccc4[nH]c23)cc1; > 100 µM (inactive)

Query: Hello, I am looking for reported GI50 with CAKI-1 for CC(C(=O)c1ccccc1)C1(O)C(=O)Nc2ccc(Cl)cc21 (stereo not given) . Could you help?
Reply: > 100 µM (inactive)

* * *

tested on: SW-620; experiment: NCI tumour cell line growth inhibition, 48 h
Calls of active or inactive are those of the source. No stated cut-off is given here; in the data, active = GI50 up to about 1.1 µM and inactive = higher.
Select the matching outcome among 1 (active), -1 (inactive)

Solved cases below.
CC1=C(C)C(=O)c2c(cc3ccc4ccccc4n23)C1=O; -1
COc1cc2c(cc1OC)-c1c(oc3cc(OC4OC(CO)C(O)C(O)C4O)c(OC)cc3c1=O)C(O)O2 (configuration not stated); -1
CN(C)c1[se]nc2c1c(=O)n(C)c(=O)n2C; -1
O=C1NC(=O)C2C1N(Cc1ccccc1)C(=O)N2Cc1ccccc1 (configuration not stated); -1
Cc1cc2nc3c(C#N)c4c(c(-c5ccc(Cl)cc5)n3c2cc1C)CCC4; -1
Nc1ccc2[nH]c(C(=O)N3CC(CCl)c4c3cc(N)c3ccccc43)cc2c1 (configuration not stated); 1

Query: Any idea what this test logged for COc1cccc(C2CC(=O)c3cccn32)c1 (configuration not stated) ?
Reply: -1

Query: Any idea what this test logged for `CCOc1nc2sc3c(c2c(=O)n1CCSSCCn1c(OCC)nc2sc4c(c2c1=O)CCCC4)CCCC3` ?
Reply: -1

Query: Any idea what this test logged for COc1ccc(N2C(=O)C3c4[nH]c5ccccc5c4C4CCC(c5ccccc5)CC4C3C2=O)cc1 (configuration not stated) ?
Reply: -1

* * *

system: NCI-H23; assay: NCI tumour cell line growth inhibition, 48 h
Calls of active or inactive are those of the source. No stated cut-off is given here; in the data, active = GI50 up to about 1.1 µM and inactive = higher.
readoutLabel: GI50

CN(CCN(C)C(=O)CCOS(C)(=O)=O)C(=O)CCOS(C)(=O)=O; > 100 µM (inactive)
O=C(c1ccc(-c2ccccc2)cc1)N(Cc1cccnc1)C(=S)N(Cc1cccnc1)C(=O)c1ccc(-c2ccccc2)cc1; > 100 µM (inactive)

Query: Hello, I am looking for reported GI50 with NCI-H23 for `O=C(/C=C/c1ccc(OCCCOc2ccc(/C=C/C(=O)c3ccccc3)cc2)cc1)c1ccccc1` . Could you help?
Reply: > 100 µM (inactive)

Query: Hello, I am looking for reported GI50 with NCI-H23 for Cc1cc(O)nc(NNC(C#N)c2ccc([N+](=O)[O-])cc2)n1 (stereo not given) . Could you help?
Reply: > 100 µM (inactive)

Query: Hello, I am looking for reported GI50 with NCI-H23 for CC(NC(=O)C(Cc1ccc(OC(=O)c2ccccc2)cc1)NC(=O)OC(C)(C)C)C(=O)NCC(=O)NC(Cc1ccccc1)NC(=O)OCc1ccccc1 (stereo not given) . Could you help?
Reply: > 100 µM (inactive)

* * *

system: A498; assay: NCI tumour cell line growth inhibition, 48 h
Activity calls are given as the source filed them. Cut-off read from the data, not from the text of the source: active = GI50 up to about 1.1 µM and inactive = higher.
Select the matching outcome among T = active, F = inactive

N#Cc1ccc(NC(=O)C(CC(=O)OCc2ccccc2)NC(=O)OCc2ccccc2)cc1 (stereo not drawn); F
COP(=O)(OC)/C(=C/c1cn(C(C)=O)c2ccccc12)NC(C)=O; F
O=C(ON=C1c2ccccc2C(Br)C(Br)c2ccccc21)c1ccccc1 (stereo not drawn); F
N#CC(C(=N/O)/C(=N/O)C(C#N)c1ccc(Cl)cc1)c1ccc(Cl)cc1 (stereo not drawn); F
Nc1c(C(=O)c2ccc(Cl)c(Cl)c2)[nH]c(NCc2ccccc2)c1C(=S)Nc1ccccc1; F
COC(=O)C1(Cc2ccccc2)Cc2cc3c(cc2C1O)CCC3 (stereo not drawn); F

Query: Any idea what this test logged for `CCCc1n[nH]c(=O)n1N1C(=O)C=CC1=O` ?
Reply: F

Query: Any idea what this test logged for NC(Cc1c[nH]c2cc([N+](=O)[O-])ccc12)C(=O)O (stereo not drawn) ?
Reply: F

Query: Any idea what this test logged for `CN(C)Cc1cc(C(=O)/C=C/c2ccc(Cl)c(Cl)c2)cc(CN(C)C)c1O` ?
Reply: F

Query: Any idea what this test logged for `CNC(=O)N1CCN(C(=O)NC)CCN(C(=O)NC)CC1` ?
Reply: F

* * *

tested on: SK-MEL-28; assay: NCI tumour cell line growth inhibition, 48 h
Active and inactive are the calls of the source. No stated cut-off is given here; in the data, active = GI50 up to about 1.1 µM and inactive = higher.
This section presents compounds with their documented GI50 values.

COc1ccc(C(=O)O)c2c(=O)c3cccnc3[nH]c12; > 100 µM (inactive)
COC(=O)c1c(OC(C)=O)ccc2c1c1c(OC(C)=O)c3ccccc3c(OC(C)=O)c1n2Cc1ccccc1; 9.77 µM (inactive)

Could you now look at the following compound, please?
Query: Look up GI50 for this compound: `O=[N+]([O-])C(=C/c1ccccc1)/C(=C\c1ccccc1)[N+](=O)[O-]`
Reply: 15.9 µM (inactive)

* * *

test system: SF-268; experiment: NCI tumour cell line growth inhibition, 48 h
The source made the active and inactive calls. No stated cut-off is given here; in the data, active = GI50 up to about 1.1 µM and inactive = higher.
Select the matching outcome among active, inactive

Solved cases below.
CCCC(CCC(N)=O)(CCC(N)=O)[N+](=O)[O-]; inactive
Cc1ccc(S(=O)(=O)Oc2cc(S(=O)(=O)O)cc3cc(S(=O)(=O)O)cc(N)c23)cc1; inactive
COCc1nc2c(OC)c(-c3nc4ccc(N5CCN(C)CC5)nc4[nH]3)cc(OC)c2n1C; inactive
CCOC(=O)C1N(S(=O)(=O)c2ccc(C)cc2)CCC12c1ccccc1N(C(C)=O)C2c1ccc(OC)c(OC)c1 (centres undefined); inactive
C/C(=N\c1ccc(Cl)c(Cl)c1)c1ccncc1; inactive

Query: Any idea what this test logged for COc1cccc(C2c3cc4c(cc3OC(Nc3ccccc3)C2C)OCO4)c1OC (centres undefined) ?
Reply: inactive

Query: Any idea what this test logged for FC(F)(F)c1ccc2c(c1)nc(-c1ccc(Cl)cc1)n2CC1CCCN2CCCCC12 (centres undefined) ?
Reply: inactive

Query: Any idea what this test logged for `N#CC(C#N)=Cc1cccc(Oc2ccccc2)c1` ?
Reply: inactive

Query: Any idea what this test logged for `COc1ccc2oc(=N)c(C(=O)NCc3ccccc3)cc2c1` ?
Reply: inactive

Query: Any idea what this test logged for `CN(C)c1[se]nc2c1c(=O)n(C)c(=O)n2C` ?
Reply: inactive

Query: Any idea what this test logged for `O=c1c2cc(Br)cc(Br)c2[nH]c(=S)n1-c1ccccc1` ?
Reply: inactive

Query: Any idea what this test logged for O=C(CC12C3C4C1C1C2C3C41CC(=O)NO)NO (centres undefined) ?
Reply: inactive
